- assay details: A-B Permeability (TC7, pH 7.4/7.4) + verapamil
- Assay type: in vitro ADME
- settings: human, Caco-2, pH 7.4, with verapamil (concentration not stated), 1.0E−05 M, 1st determination, read-out: Percent Recovery 1st
property label: recovery at 10 µM (%)

{"columns": ["compound", "property label", "unit text", "reading"],
 "data": [
  ["S=C(N/N=C1/CCCc2cccnc21)N1CCN(c2ccccn2)CC1 [COTI-2]", "recovery at 10 µM", "%", 17]
]}

---

- study target: CYP2B6 (Homo sapiens)
- Sequence (P20813 whole entry): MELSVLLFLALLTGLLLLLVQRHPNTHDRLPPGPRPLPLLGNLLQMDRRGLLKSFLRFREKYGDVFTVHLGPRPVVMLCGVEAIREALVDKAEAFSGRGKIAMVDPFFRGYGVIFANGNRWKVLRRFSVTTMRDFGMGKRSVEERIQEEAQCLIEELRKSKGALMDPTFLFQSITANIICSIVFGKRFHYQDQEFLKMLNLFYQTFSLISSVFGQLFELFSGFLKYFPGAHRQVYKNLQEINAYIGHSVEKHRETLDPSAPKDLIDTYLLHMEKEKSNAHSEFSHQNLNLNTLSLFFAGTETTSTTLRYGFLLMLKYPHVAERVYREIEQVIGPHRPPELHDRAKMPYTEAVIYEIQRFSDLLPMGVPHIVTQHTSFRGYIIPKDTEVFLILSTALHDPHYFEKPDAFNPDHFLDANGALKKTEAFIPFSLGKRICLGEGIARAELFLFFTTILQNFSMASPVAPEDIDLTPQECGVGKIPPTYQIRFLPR

{"columns": ["smi", "unit text", "IC50"],
 "data": [
  ["COC(=O)[C@H](c1ccccc1Cl)N1CCc2sccc2C1", "nM", 640]
]}

---

- assay details: in vitro
- Format: in vitro ADME
- settings: mixed breeds, rat, % Recovery Mean
property label: recovery at 10 µM (%)

{"columns": ["molecule", "reading"],
 "data": [
  ["S=C(N/N=C1/CCCc2cccnc21)N1CCN(c2ccccn2)CC1 [COTI-2]", 20.7]
]}

---

In this section we review reported microsomal CLint at 10 µM values for a set of compounds.
- assay details: Half-life and liver clearance rate by human liver microsomes (HLM) at 0.5 mg/mL
- Assay type: in vitro ADME
- settings: liver microsomes, 10 μM
- Procedure: Sampling was conducted at 1, 20, 40, 60, 120,180 and 240 minutes and the remaining concentration of each compound was evaluated. A half life (T1/2) was calculated at each concentration, along with the rate of clearance by the liver (CL). The CL values compare favorably with published values for other marketed therapeutic agents under identical conditions. […]
property label: microsomal CLint at 10 µM (µL/min/mg)

{"columns": ["smi", "property label", "reading"],
 "data": [
  ["S=C(N/N=C1/CCCc2cccnc21)N1CCN(c2ccccn2)CC1", "microsomal CLint at 10 µM", 4],
  ["CN1CCN(C(=S)NN=C2c3ncccc3-c3cccnc32)CC1", "microsomal CLint at 10 µM", 3]
]}

---

- study target: CYP2C19 (Homo sapiens, UniProt P33261)
- Sequence (P33261 whole entry): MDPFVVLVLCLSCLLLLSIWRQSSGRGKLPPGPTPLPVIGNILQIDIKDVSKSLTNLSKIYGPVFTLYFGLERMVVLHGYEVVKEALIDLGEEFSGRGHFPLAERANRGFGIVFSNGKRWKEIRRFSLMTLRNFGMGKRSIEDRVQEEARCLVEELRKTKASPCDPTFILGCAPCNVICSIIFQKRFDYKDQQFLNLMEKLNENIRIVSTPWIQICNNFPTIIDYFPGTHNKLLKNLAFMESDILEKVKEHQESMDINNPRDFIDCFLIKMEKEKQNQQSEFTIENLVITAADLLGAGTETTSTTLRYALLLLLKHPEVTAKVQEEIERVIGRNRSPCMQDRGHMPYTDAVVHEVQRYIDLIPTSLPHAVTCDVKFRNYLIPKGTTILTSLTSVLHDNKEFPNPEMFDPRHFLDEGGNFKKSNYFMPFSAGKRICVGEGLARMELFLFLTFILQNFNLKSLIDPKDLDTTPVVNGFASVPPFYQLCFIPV
- assay details: in vitro
- settings: both, human liver microsomes, pH 7.4, probe omeprazole (10 µM)

{"columns": ["smi", "inhibition at 15 min, 10 µM [%]"],
 "data": [
  ["S=C(N/N=C1/CCCc2cccnc21)N1CCN(c2ccccn2)CC1", 4]
]}

---

Each record here notes measured IC50.
- System: SF-295
- assay details: IC50 human glioma/astrocytoma cell lines (alamar Blue), SF-295

{"columns": ["smi", "IC50, µM"],
 "data": [
  ["S=C(N/N=C1/CCCc2cccnc21)N1CCN(c2ccccn2)CC1", 0.184],
  ["CN1CCN(C(=S)NN=C2c3ncccc3-c3cccnc32)CC1", 2.39]
]}

---

- assay details: Half-life and liver clearance rate by human liver microsomes (HLM) at 0.5 mg/mL
- Assay type: in vitro ADME
- settings: liver microsomes, 100 μM, read-out: T1/2
// values below are reported half-life at 100 µM

{"columns": ["smi", "half-life at 100 µM"],
 "data": [
  ["S=C(N/N=C1/CCCc2cccnc21)N1CCN(c2ccccn2)CC1", "11.4 h"],
  ["CN1CCN(C(=S)NN=C2c3ncccc3-c3cccnc32)CC1", "8.47 h"]
]}

---

Parameter: IC50. Scope: all listed entries.
- System: COLO-205
- assay details: Tumor cell proliferation, single agents and combinations, COLO-205
- Type: cell-based, human
- settings: Homo sapiens; COLO-205, Colon, KRAS - WT; read-out: Mean IC50, single agent

{"columns": ["compound", "study target", "limit sign", "IC50 [nM]"],
 "data": [
  ["C#Cc1cccc(Nc2ncnc3cc(OCCOC)c(OCCOC)cc23)c1 [Tarceva®, erlotinib]", "COLO-205", ">", 10000],
  ["CN1CCN(C(=S)NN=C2c3ncccc3-c3cccnc32)CC1 [COTI-219]", "COLO-205", "=", 4.3]
]}
